- tested-target: Cathepsin B (Homo sapiens, UniProt P07858)
- test-protocol: Inhibition of recombinant cathepsin B (unknown origin) using Z-Leu-Arg-AMC fluorogenic substrate
endpoint-name: IC50

1. N#C[C@H](CC(N)=O)NC(=O)[C@@H]1CCCN1S(=O)(=O)c1ccc(-c2ccccc2)cc1
> 50 µM
2. CC(C)(C)c1ccc(-c2ccc(S(=O)(=O)N3CCC[C@H]3C(=O)N[C@H](C#N)CC(N)=O)cc2)cc1
> 50 µM

Request: Using the record for `COc1ccc(-c2ccc(S(=O)(=O)N3CCC[C@H]3C(=O)N[C@H](C#N)CC(N)=O)cc2)cc1` , report its IC50.
Response: > 50 µM

----------
Recorded inhibition by entry
- tested-target: UniProt Q99538
- Sequence (whole entry): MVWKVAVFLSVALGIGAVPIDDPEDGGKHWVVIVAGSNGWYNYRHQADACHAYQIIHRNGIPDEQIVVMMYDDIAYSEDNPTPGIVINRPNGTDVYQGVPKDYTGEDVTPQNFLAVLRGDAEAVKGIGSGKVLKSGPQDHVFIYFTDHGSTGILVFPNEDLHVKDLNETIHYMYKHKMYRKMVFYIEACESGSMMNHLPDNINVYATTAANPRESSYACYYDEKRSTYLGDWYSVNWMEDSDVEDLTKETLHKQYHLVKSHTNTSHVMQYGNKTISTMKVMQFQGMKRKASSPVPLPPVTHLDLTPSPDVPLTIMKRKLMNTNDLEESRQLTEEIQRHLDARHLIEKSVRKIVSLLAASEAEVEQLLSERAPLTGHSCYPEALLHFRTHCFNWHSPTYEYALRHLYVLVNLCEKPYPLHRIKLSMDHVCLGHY
- test-protocol: Inhibition of legumain in human MCF7 cells using Z-Ala-Ala-Asn-MCA substrate at 30 uM incubated for 24 hrs by microplate reader analysis
- Type: cell-based

Solved entries:
1. CC(C)Oc1ccc(-c2ccc(S(=O)(=O)N3CCC[C@H]3C(=O)N[C@H](C#N)CC(N)=O)cc2)cc1
49%
2. N#C[C@H](CC(N)=O)NC(=O)[C@@H]1CCCN1S(=O)(=O)c1ccc(-c2ccc(Cl)cc2)cc1
64%

# evaluate next
Request: Provide value of inhibition for this record tested with UniProt Q99538: `CCc1ccc(-c2ccc(S(=O)(=O)N3CCC[C@H]3C(=O)N[C@H](C#N)CC(N)=O)cc2)cc1`
Response: 42%

----------
Recorded pIC50 by entry
- tested-target: Cathepsin S (Homo sapiens, UniProt P25774)
- Sequence (P25774 whole entry): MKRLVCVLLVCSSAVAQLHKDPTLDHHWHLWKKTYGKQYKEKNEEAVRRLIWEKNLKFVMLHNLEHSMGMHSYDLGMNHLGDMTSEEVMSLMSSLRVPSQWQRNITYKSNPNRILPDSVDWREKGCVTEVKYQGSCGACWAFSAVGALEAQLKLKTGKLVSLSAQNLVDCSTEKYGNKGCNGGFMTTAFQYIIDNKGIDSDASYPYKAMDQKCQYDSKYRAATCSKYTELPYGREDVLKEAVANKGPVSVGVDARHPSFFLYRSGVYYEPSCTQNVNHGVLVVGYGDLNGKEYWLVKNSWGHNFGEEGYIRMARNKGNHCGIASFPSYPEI
- test-protocol: Inhibition of recombinant cathepsin S (unknown origin) using ZVVR-AMC fluorogenic substrate
pIC50: −log10 of the molar value.

Request: Using the record for `COc1ccc(-c2ccc(S(=O)(=O)N3CCC[C@H]3C(=O)N[C@H](C#N)CC(N)=O)cc2)cc1` , report its pIC50.
Response: < 4.30

Request: # iterate: `CC(C)(C)c1ccc(-c2ccc(S(=O)(=O)N3CCC[C@H]3C(=O)N[C@H](C#N)CC(N)=O)cc2)cc1`
Response: < 4.30

Request: # iterate: `N#C[C@H](CC(N)=O)NC(=O)[C@@H]1CCCN1S(=O)(=O)c1ccc(-c2ccccc2)cc1`
Response: < 4.30

----------
- tested-target: Caspase-8 (Homo sapiens, UniProt Q14790)
- Sequence (Q14790 217-374 limits assumed): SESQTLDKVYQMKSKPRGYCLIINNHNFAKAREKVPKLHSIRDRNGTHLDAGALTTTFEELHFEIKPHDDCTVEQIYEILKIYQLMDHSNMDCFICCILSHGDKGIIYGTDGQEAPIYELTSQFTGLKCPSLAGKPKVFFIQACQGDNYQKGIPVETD
- Sequence (Q14790 385-479 limits assumed): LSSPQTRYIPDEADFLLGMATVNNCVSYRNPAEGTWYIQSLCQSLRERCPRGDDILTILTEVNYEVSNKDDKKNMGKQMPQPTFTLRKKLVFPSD
- test-protocol: Inhibition of recombinant caspase 8 (unknown origin) using IETD-AFC fluorogenic substrate
endpoint-name: IC50

Solved entries:
1. N#C[C@H](CC(N)=O)NC(=O)[C@@H]1CCCN1S(=O)(=O)c1ccc(-c2ccccc2)cc1
> 50 µM
2. COc1ccc(-c2ccc(S(=O)(=O)N3CCC[C@H]3C(=O)N[C@H](C#N)CC(N)=O)cc2)cc1
> 50 µM

# evaluate next
Request: Using the record for `CC(C)(C)c1ccc(-c2ccc(S(=O)(=O)N3CCC[C@H]3C(=O)N[C@H](C#N)CC(N)=O)cc2)cc1` , report its IC50.
Response: > 50 µM
